Taken from patent US20040258656.

Target: T1, TGFβ2 (transforming growth factor beta 2) (Homo sapiens, UniProt P61812 SEQ:1-112)
T1 sequence: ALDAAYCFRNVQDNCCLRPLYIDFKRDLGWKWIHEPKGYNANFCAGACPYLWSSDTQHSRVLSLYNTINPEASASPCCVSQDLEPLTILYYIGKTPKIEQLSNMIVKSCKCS
Assay: filter
Settings: chain copies: 2 (inferred, homodimer)
In this section we review reported binding signal values for a set of binders.

binder: GGGGAGCGGCGUUGUUUAGUCGUAUGUAUAUACUAAGU (ssRNA, 2'-F C and U) [21a-4(ML-111)]
binding signal: 30 x Kd of 21a-4
--
binder: GGGGAGCGGCGUUGUUUAUGUAUAAGUCCGCUU (ssRNA, 2'-F C and U) [21a-4(ML-109)]
binding signal: > 100 x Kd of 21a-4
--
binder: GGGGAGCGGCGUUGUUUCGUAUGUAUAUAAGUCCGCUU (ssRNA, 2'-F C and U) [21a-4(ML-108)]
binding signal: > 100 x Kd of 21a-4
--
binder: GGCGUUGUUUAGUCGUAUGUAUAUACUAAGUCCGCUUGUCCCCA (ssRNA, 2'-F C and U) [21a-4Δ5',3']
binding signal: > 100 x Kd of 21a-4
--
binder: GGGGAGCGGCGUUGUUUAGUCGUAUGUAUAUACUAAGUCCGC (ssRNA, 2'-F C and U) [21a-4(ML-110)]
binding signal: 1 x Kd of 21a-4
--
binder: GGGGAGCGGCGUUGUUUAGUCGUAUGUAUAUACUAAGUCCGCUU (ssRNA, 2'-F C and U) [21a-4(ML-91)]
binding signal: 1 x Kd of 21a-4
--
binder: GGGGAGCGGCGUUGUUGAAAAGUCCGCUU (ssRNA, 2'-F C and U) [21a-4(ML-92)]
binding signal: > 100 x Kd of 21a-4
